- System: RMG-I (Ovarian Carcinoma)
- Assay method text: combination Emax (second highest fraction inhibited in the dose matrix, 72 h); higher = more inhibition; extreme values may be limits of the assay
Provide the recorded combination Emax for the entries that follow.
Answers are plain numbers.

- C[C@@H](c1ccc2nccn2c1)n1nnc2ncc(-c3cnn(C)c3)nc21 [Savolitinib] + Cc1c2c(nn1C)CSCc1cc(n(C)n1)CSc1cc(c3ccccc3c1)OCCCc1c(C(=O)O)n(C)c3c-2c(Cl)ccc13 [AZD5991] (first compound max 1 µM, 7x7, partner max 1 µM): 0.216

In the following, a different compound is considered.
Ask: For the compound CN(CCO)CC[C@H](CSc1ccccc1)Nc1ccc(S(=O)(=O)NC(=O)c2ccc(N3CCC([C@@H](O)c4ccccc4-c4ccc(Cl)cc4)CC3)cc2)cc1S(=O)(=O)C(F)(F)F [AZD4320] + C=CCn1c(=O)c2cnc(Nc3ccc(N4CCN(C)CC4)cc3)nc2n1-c1cccc(C(C)(C)O)n1 [AZD1775] (first compound max 1 µM, partner max 1 µM) , what combination Emax is on record?
Reply: 0.907

----------
Provide the recorded combination Emax for the entries that follow.
- System: AN3-CA (Endometrial Carcinoma)
- Assay method text: combination Emax (second highest fraction inhibited in the dose matrix, 72 h); higher = more inhibition; extreme values may be limits of the assay
Give bare numbers.

# annotated cases, reported combination Emax shown
• COc1cccc(OCCCN)c1-c1cc(Nc2cnc(C#N)cn2)n[nH]1 [Prexasertib] + CCc1c2c(nc3ccc(O)cc13)-c1cc3c(c(=O)n1C2)COC(=O)[C@]3(O)CC [SN-38] (first compound max 1 µM, 7x7, partner max 0.3 µM) = 0.946
• COc1nnc2ccc(N3CCC(c4ccc(OCCN5CCN(C)C(=O)[C@H]5C)cc4)CC3)nn12 [AZD5153] + C=CCn1c(=O)c2cnc(Nc3ccc(N4CCN(C)CC4)cc3)nc2n1-c1cccc(C(C)(C)O)n1 [AZD1775] (first compound max 1 µM, partner max 1 µM) = 0.435

Please give combination Emax, item by item, for the list that follows.
1. Cc1cc2ncnn2cc1Nc1ncc2c(n1)n(C1CCOCC1)c(=O)n2C [AZD7648] + C[C@@H]1COCCN1C2=NC(=NC(=C2)C3(CC3)[S@](=N)(=O)C)C4=C5C=CNC5=NC=C4 [AZD6738] (first compound max 10 µM, 7x7, partner max 10 µM)
2. NC1(C(=O)N[C@@H](CCO)c2ccc(Cl)cc2)CCN(c2ncnc3[nH]ccc23)CC1 [Capivasertib] + CCN(CCO)CCCOc1ccc2c(Nc3cc(CC(=O)Nc4cccc(F)c4)[nH]n3)ncnc2c1 [AZD2811] (first compound max 10 µM, 7x7, partner max 1 µM)

Reply:
1: 0.435; 2: 0.786

----------
- Tested on: COLO-684 (Endometrial Carcinoma)
- Assay method text: Bliss excess, mean over the matrix (fraction); higher = more synergy
Provide the recorded Bliss excess for the entries that follow.

- CC(=O)Nc1cccc(-n2c(=O)n(C3CC3)c(=O)c3c(Nc4ccc(I)cc4F)n(C)c(=O)c(C)c32)c1 [Trametinib] + Cc1nc(-c2cn3c(n2)-c2ccc(-c4cnn(C(C)(C)C(N)=O)c4)cc2OCC3)n(C(C)C)n1 [Taselisib] (first compound max 1 µM, 7x7, partner max 10 µM): -0.0034

In the following, a different compound is considered.
Ask: For the compound COc1cc2ncnc(Nc3ccc(F)c(Cl)c3)c2cc1OCCCN1CCOCC1 [Gefitinib] + CC(C)n1c(=O)n(C)c2cnc3cc(F)c(-c4ccc(OCCCN5CCCCC5)nc4)cc3c21 [AZD1390] (first compound max 10 µM, 7x7, partner max 0.3 µM) , what Bliss excess is on record?
Reply: -0.0395

----------
- System: AsPC-1 (Pancreatic Carcinoma)
- Assay method text: combination Emax (second highest fraction inhibited in the dose matrix, 72 h); higher = more inhibition; extreme values may be limits of the assay
Reported property: combination Emax
Answers are plain numbers.

# annotated cases, reported combination Emax shown
* CCN(CCO)CCCOc1ccc2c(Nc3cc(CC(=O)Nc4cccc(F)c4)[nH]n3)ncnc2c1 [AZD2811] + C[C@@H]1COCCN1C2=NC(=NC(=C2)C3(CC3)[S@](=N)(=O)C)C4=C5C=CNC5=NC=C4 [AZD6738] (first compound max 1 µM, 7x7, partner max 10 µM) | 0.42
* COc1cccc2c1C(=O)c1c(O)c3c(c(O)c1C2=O)C[C@@](O)(C(=O)CO)C[C@@H]3O[C@H]1C[C@H](N)[C@H](O)[C@H](C)O1 [Doxorubicin] + Cc1cc2ncnn2cc1Nc1ncc2c(n1)n(C1CCOCC1)c(=O)n2C [AZD7648] (first compound max 1 µM, 7x7, partner max 10 µM) | 0.267

In the following, a different molecule is considered.
Ask: For the molecule CN(C)CCCOc1ccc(-c2ccc3ncc4c(c3c2)n(C2CCOCC2)c(=O)n4C)cn1 [AZD0156] + C[C@@H]1COCCN1C2=NC(=NC(=C2)C3(CC3)[S@](=N)(=O)C)C4=C5C=CNC5=NC=C4 [AZD6738] (first compound max 1 µM, 7x7, partner max 10 µM) , what combination Emax is on record?
Reply: 0.454

----------
- System: KYM-1 (Rhabdomyosarcoma)
- Assay method text: Bliss excess, mean over the matrix (fraction); higher = more synergy
Reported property: Bliss excess
Numbers only.

- C[C@@H]1COCCN1c1cc(C2([S@](C)(=N)=O)CC2)nc(-c2ccnc3[nH]ccc23)n1 [AZD6738] + O=C(c1cc(Cc2n[nH]c(=O)c3ccccc23)ccc1F)N1CCN(C(=O)C2CC2)CC1 [Olaparib] (first compound max 10 µM, 7x7, partner max 10 µM): 0.0088
- O=C(c1cc(Cc2n[nH]c(=O)c3ccccc23)ccc1F)N1CCN(C(=O)C2CC2)CC1 [Olaparib] + CC1(C)CCC(CN2CCN(c3ccc(C(=O)NS(=O)(=O)c4ccc(NCC5CCOCC5)c([N+](=O)[O-])c4)c(Oc4cnc5[nH]ccc5c4)c3)CC2)=C(c2ccc(Cl)cc2)C1 [Venetoclax] (first compound max 10 µM, 7x7, partner max 1 µM): -0.0388
- N#Cc1cnc(Nc2cc(NC[C@H]3CNCCO3)c(C(F)(F)F)cn2)cn1 [SRA737] + O=c1[nH]cc(F)c(=O)[nH]1 [5-Fluorouracil] (first compound max 10 µM, 7x7, partner max 20 µM): -0.0559

In the following, a different compound is considered.
Ask: For the compound C=CCn1c(=O)c2cnc(Nc3ccc(N4CCN(C)CC4)cc3)nc2n1-c1cccc(C(C)(C)O)n1 [AZD1775] + O=C(c1cc(Cc2n[nH]c(=O)c3ccccc23)ccc1F)N1CCN(C(=O)C2CC2)CC1 [Olaparib] (first compound max 1 µM, partner max 10 µM) , what Bliss excess is on record?
Reply: 0.0188

----------
- Tested on: NCI-H1563 (Lung Adenocarcinoma)
- Assay method text: Bliss excess, mean over the matrix (fraction); higher = more synergy
Reported property: Bliss excess

- CCN(CCO)CCCOc1ccc2c(Nc3cc(CC(=O)Nc4cccc(F)c4)[nH]n3)ncnc2c1 [AZD2811] + O=C(c1cc(Cc2n[nH]c(=O)c3ccccc23)ccc1F)N1CCN(C(=O)C2CC2)CC1 [Olaparib] (first compound max 1 µM, 7x7, partner max 10 µM): -0.0221

In the following, a different compound is considered.
Ask: For the compound Cc1nc(Nc2ncc(C(=O)Nc3c(C)cccc3Cl)s2)cc(N2CCN(CCO)CC2)n1 [Dasatinib] + CC(=O)Nc1cccc(-n2c(=O)n(C3CC3)c(=O)c3c(Nc4ccc(I)cc4F)n(C)c(=O)c(C)c32)c1 [Trametinib] (first compound max 2 µM, 7x7, partner max 1 µM) , what Bliss excess is on record?
Reply: -0.111

----------
- Tested on: NCI-H1623 (Lung Adenocarcinoma)
- Assay method text: combination Emax (second highest fraction inhibited in the dose matrix, 72 h); higher = more inhibition; extreme values may be limits of the assay
Reported property: combination Emax
Answers are plain numbers.

• NC1(C(=O)N[C@@H](CCO)c2ccc(Cl)cc2)CCN(c2ncnc3[nH]ccc23)CC1 [Capivasertib] + Cn1cnc2c(F)c(Nc3ccc(Br)cc3Cl)c(C(=O)NOCCO)cc21 [Selumetinib] (first compound max 10 µM, 7x7, partner max 10 µM) = 0.813

In the following, a different compound is considered.
Ask: For the compound CS(=O)(=O)CCNCc1ccc(-c2ccc3ncnc(Nc4ccc(OCc5cccc(F)c5)c(Cl)c4)c3c2)o1 [Lapatinib] + C[C@@H](Oc1cc(-c2cnn(C3CCNCC3)c2)cnc1N)c1c(Cl)ccc(F)c1Cl [Crizotinib] (first compound max 10 µM, 7x7, partner max 10 µM) , what combination Emax is on record?
Reply: 0.987

----------
- Test system: NCI-H810 (Non-Small Cell Lung Carcinoma)
- Assay method text: Bliss excess, mean over the matrix (fraction); higher = more synergy
Cut-off -0.03 on Bliss excess, inclusive. At or above means Yes; below means No.

Below, 5 molecules whose answers are already recorded.
• CN(CCO)CC[C@H](CSc1ccccc1)Nc1ccc(S(=O)(=O)NC(=O)c2ccc(N3CCC([C@@H](O)c4ccccc4-c4ccc(Cl)cc4)CC3)cc2)cc1S(=O)(=O)C(F)(F)F [AZD4320] + CN(C)CCCOc1ccc(-c2ccc3ncc4c(c3c2)n(C2CCOCC2)c(=O)n4C)cn1 [AZD0156] (first compound max 1 µM, 7x7, partner max 1 µM) = No
• Cc1cc2ncnn2cc1Nc1ncc2c(n1)n(C1CCOCC1)c(=O)n2C [AZD7648] + CCN(CCO)CCCOc1ccc2c(Nc3cc(CC(=O)Nc4cccc(F)c4)[nH]n3)ncnc2c1 [AZD2811] (first compound max 10 µM, 7x7, partner max 1 µM) = Yes
• C=CCn1c(=O)c2cnc(Nc3ccc(N4CCN(C)CC4)cc3)nc2n1-c1cccc(C(C)(C)O)n1 [AZD1775] + C[C@@H]1COCCN1C2=NC(=NC(=C2)C3(CC3)[S@](=N)(=O)C)C4=C5C=CNC5=NC=C4 [AZD6738] (first compound max 1 µM, partner max 10 µM) = Yes
• CC(=O)Nc1cccc(-n2c(=O)n(C3CC3)c(=O)c3c(Nc4ccc(I)cc4F)n(C)c(=O)c(C)c32)c1 [Trametinib] + Cc1nc(-c2cn3c(n2)-c2ccc(-c4cnn(C(C)(C)C(N)=O)c4)cc2OCC3)n(C(C)C)n1 [Taselisib] (first compound max 1 µM, 7x7, partner max 10 µM) = No
• NC1(C(=O)N[C@@H](CCO)c2ccc(Cl)cc2)CCN(c2ncnc3[nH]ccc23)CC1 [Capivasertib] + Cn1cnc2c(F)c(Nc3ccc(Br)cc3Cl)c(C(=O)NOCCO)cc21 [Selumetinib] (first compound max 10 µM, 7x7, partner max 10 µM) = Yes

Ask: In plain terms: is recorded Bliss excess at least -0.03 for COc1cccc(OCCCN)c1-c1cc(Nc2cnc(C#N)cn2)n[nH]1 [Prexasertib] + C[C@@H]1COCCN1C2=NC(=NC(=C2)C3(CC3)[S@](=N)(=O)C)C4=C5C=CNC5=NC=C4 [AZD6738] (first compound max 1 µM, 7x7, partner max 10 µM) ?
Reply: No

Ask: In plain terms: is recorded Bliss excess at least -0.03 for N#Cc1cnc(Nc2cc(NC[C@H]3CNCCO3)c(C(F)(F)F)cn2)cn1 [SRA737] + O=c1[nH]cc(F)c(=O)[nH]1 [5-Fluorouracil] (first compound max 10 µM, 7x7, partner max 20 µM) ?
Reply: No

Ask: In plain terms: is recorded Bliss excess at least -0.03 for CCN(CCO)CCCOc1ccc2c(Nc3cc(CC(=O)Nc4cccc(F)c4)[nH]n3)ncnc2c1 [AZD2811] + O=C(c1cc(Cc2n[nH]c(=O)c3ccccc23)ccc1F)N1CCN(C(=O)C2CC2)CC1 [Olaparib] (first compound max 1 µM, 7x7, partner max 10 µM) ?
Reply: Yes

Ask: In plain terms: is recorded Bliss excess at least -0.03 for C=CCn1c(=O)c2cnc(Nc3ccc(N4CCN(C)CC4)cc3)nc2n1-c1cccc(C(C)(C)O)n1 [AZD1775] + Nc1ccn([C@@H]2O[C@H](CO)[C@@H](O)C2(F)F)c(=O)n1 [Gemcitabine] (first compound max 1 µM, partner max 0.3 µM) ?
Reply: No

Ask: In plain terms: is recorded Bliss excess at least -0.03 for CN(C)CCCOc1ccc(-c2ccc3ncc4c(c3c2)n(C2CCOCC2)c(=O)n4C)cn1 [AZD0156] + C=CCn1c(=O)c2cnc(Nc3ccc(N4CCN(C)CC4)cc3)nc2n1-c1cccc(C(C)(C)O)n1 [AZD1775] (first compound max 1 µM, partner max 1 µM) ?
Reply: No

Ask: In plain terms: is recorded Bliss excess at least -0.03 for CCc1c2c(nc3ccc(O)cc13)-c1cc3c(c(=O)n1C2)COC(=O)[C@]3(O)CC [SN-38] + O=C(c1cc(Cc2n[nH]c(=O)c3ccccc23)ccc1F)N1CCN(C(=O)C2CC2)CC1 [Olaparib] (first compound max 0.3 µM, 7x7, partner max 10 µM) ?
Reply: Yes

Ask: In plain terms: is recorded Bliss excess at least -0.03 for NC1(C(=O)N[C@@H](CCO)c2ccc(Cl)cc2)CCN(c2ncnc3[nH]ccc23)CC1 [Capivasertib] + C[C@@H]1COCCN1C2=NC(=NC(=C2)C3(CC3)[S@](=N)(=O)C)C4=C5C=CNC5=NC=C4 [AZD6738] (first compound max 10 µM, 7x7, partner max 10 µM) ?
Reply: No

Ask: In plain terms: is recorded Bliss excess at least -0.03 for CC(=O)c1c(C)c2cnc(Nc3ccc(N4CCNCC4)cn3)nc2n(C2CCCC2)c1=O [Palbociclib] + CC1(C)CCC(CN2CCN(c3ccc(C(=O)NS(=O)(=O)c4ccc(NCC5CCOCC5)c([N+](=O)[O-])c4)c(Oc4cnc5[nH]ccc5c4)c3)CC2)=C(c2ccc(Cl)cc2)C1 [Venetoclax] (first compound max 10 µM, 7x7, partner max 1 µM) ?
Reply: No

Ask: In plain terms: is recorded Bliss excess at least -0.03 for COc1cccc(OCCCN)c1-c1cc(Nc2cnc(C#N)cn2)n[nH]1 [Prexasertib] + CN(C)CCCOc1ccc(-c2ccc3ncc4c(c3c2)n(C2CCOCC2)c(=O)n4C)cn1 [AZD0156] (first compound max 1 µM, 7x7, partner max 1 µM) ?
Reply: No
